Where do the numbers come from? From PubChem BioAssay AID504383.

# tgt: Troponin I, cardiac muscle (Homo sapiens) + Troponin T, cardiac muscle (Homo sapiens) + Troponin C, slow skeletal and cardiac muscles (Homo sapiens) (UniProt P19429+P45379+P63316)
# experimental.protocol: cardiac RTF calcium sensitivity activators, confirmation, biochemical, IANBD-TnC fluorescence, triplicate (AID 504383);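 further: 0% = DMSO at 0.472 mM calcium and 100% = DMSO at 2.9 mM calcium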
# condition.set: IANBD-labeled cardiac RTF, Ca2+ sensitivity fluorescence; at 7.2 µM; scaled from EC20 to saturating calcium; tested at EC20 calcium, 0.472 mM
The whole screen tested about 2,500 compounds, of which about 1,200 (48%) were called active.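 How the source made its calls: active means mean activation above the low control average plus 3 SD, as set in the primary screen (cut at about 12% in these data); inactive means the rest.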 So high a share suggests a set chosen from earlier hits. Some of the results follow.
Parameter call: string, one of t (active), f (inactive)

compound	label.class
CCCCNC(=O)Nc1nnc(-c2ccccc2)o1	f
C=C1CCN(C(CC(C)C)C(=O)OC)S(=O)(=O)c2ccccc21 (stereo unspecified)	f
Cc1ccccc1NC(=O)c1nnn(-c2ccc3c(c2)OCCO3)c1N	f
O=C(O)c1ccc2c(c1)S(=O)(=O)c1ccccc1C2=O	f
O=C(CCSc1nnc(-c2ccco2)o1)Nc1ccccc1	t

Turning now to a further record.
In: Field: outcome | Entry: `C=C1CCN([C@@H](Cc2ccccc2)C(=O)O)S(=O)(=O)c2ccccc21`
Out: t

###

# tgt: Troponin I, cardiac muscle (Homo sapiens) + Troponin T, cardiac muscle (Homo sapiens) + Troponin C, slow skeletal and cardiac muscles (Homo sapiens) (UniProt P19429+P45379+P63316)
# experimental.protocol: cardiac RTF calcium sensitivity activators, confirmation, biochemical, IANBD-TnC fluorescence, triplicate (AID 504383);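 further: 0% = DMSO at 0.472 mM calcium and 100% = DMSO at 2.9 mM calcium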
# condition.set: IANBD-labeled cardiac RTF, Ca2+ sensitivity fluorescence; at 7.2 µM; stronger effect = higher value; scaled from EC20 to saturating calcium; tested at EC20 calcium, 0.472 mM
Out of some 2,500 compounds screened, about 1,200 (48%) were called active. The set was probably picked from earlier hits. The list shows a part of the results.
measurement.type: activation

Worked cases, answers included:
compound	activation
Cc1ccc(C)c(N2CCN(C(=O)c3cc4ccccn4n3)CC2)c1	21.1% (active)
CC1(C)CC2CC(C)(CN2CC(=O)C(C#N)c2ccccc2)C1 (stereo not drawn)	7.07% (inactive)
O=C1NC2=C(C(=O)CCC2)C(c2ccccc2Cl)N1 (stereo not drawn)	10.3% (inactive)
Cc1cccc(N=Nc2c(O)[nH]c3ccc(F)cc23)c1	7.58% (inactive)
O=C1c2ccccc2-c2onc3ccc(NCc4ccco4)c1c23	1.47% (inactive)

Documented activation of `O=C1c2c(O)cc(O)cc2O[C@@]12c1c(cc(O)c3c1O[C@H](c1ccc(O)cc1)[C@@H](O)C3)O[C@@H]2c1ccc(O)cc1` : 5.77% (inactive)

Documented activation of CCOC(=O)C(C)Sc1nnc(Cc2cc(=O)[nH]c(=O)[nH]2)n1-c1ccc(Cl)cc1 (stereo not drawn) : 10.2% (inactive)

Documented activation of `S=C(Nc1ccc(N2CCOCC2)cc1)Nc1ccc2nc(-c3ccco3)c(-c3ccco3)nc2c1` : 43.1% (active)

###

# tgt: Troponin I, cardiac muscle (Homo sapiens) + Troponin T, cardiac muscle (Homo sapiens) + Troponin C, slow skeletal and cardiac muscles (Homo sapiens) (UniProt P19429+P45379+P63316)
# experimental.protocol: cardiac RTF calcium sensitivity activators, confirmation, biochemical, IANBD-TnC fluorescence, triplicate (AID 504383);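 further: 0% = DMSO at 0.472 mM calcium and 100% = DMSO at 2.9 mM calcium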
# condition.set: IANBD-labeled cardiac RTF, Ca2+ sensitivity fluorescence; at 7.2 µM; stronger effect = higher value; scaled from EC20 to saturating calcium; tested at EC20 calcium, 0.472 mM
About 1,200 (48%) of roughly 2,500 compounds were called active. The set was probably picked from earlier hits. The list shows a part of the results.
Use 2000% as the dividing line for activation, with the line itself on the satisfied side and lower values as not satisfied.

Please review the entries below; each comes with its answer.
compound	label.class
COc1ccc(OC)c(NC(=O)CNC(=O)Cn2c(C)cc3ccccc3c2=O)c1	satisfied
Cn1c(NC(=O)C[n+]2cc(-c3ccc(Cl)cc3)n3c2CCC3)cc(=O)n(C)c1=O	not satisfied
COC(=O)C1CCN(C(=O)CN2C(=O)c3ccccc3S2(=O)=O)CC1	satisfied

In: Is activation at least 2000%? Consider CC1(C)CC(=O)C(CC2CCCCC2=O)C(=O)C1 (stereo not given)
Out: not satisfied

###

Listed below: activation values for each entry.
# tgt: Troponin I, cardiac muscle (Homo sapiens) + Troponin T, cardiac muscle (Homo sapiens) + Troponin C, slow skeletal and cardiac muscles (Homo sapiens) (UniProt P19429+P45379+P63316)
# experimental.protocol: cardiac RTF calcium sensitivity activators, confirmation, biochemical, IANBD-TnC fluorescence, triplicate (AID 504383);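 further: 0% = DMSO at 0.472 mM calcium and 100% = DMSO at 2.9 mM calcium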
# condition.set: IANBD-labeled cardiac RTF, Ca2+ sensitivity fluorescence; at 7.2 µM; stronger effect = higher value; scaled from EC20 to saturating calcium; tested at EC20 calcium, 0.472 mM
Hit rate of the full screen: of about 2,500 compounds, about 1,200 (48%) were called active. So high a share suggests a set chosen from earlier hits. Some of the results follow.
Field format: number, assumed %, no unit text.

Worked cases, answers included:
compound	unit.abbrev	recorded.number
CC(C)OC(=O)CC(=O)CSc1nc(-c2ccc(F)cc2)cc(-c2ccccc2)c1C#N	%	38.9
CN(C)c1ccc(/C=C/C(=O)c2ccccc2O)cc1	%	6.07
O=C(NC1CC1)c1cccc2c1C(=O)c1ccc(N3CCC(Cc4ccccc4)CC3)cc1S2(=O)=O	%	0.64

Consider now this further compound.
Documented activation of `COc1ccc(/C=N/Nc2ncc(C(F)(F)F)cc2Cl)cc1OC` : -2.64

###

# tgt: Troponin I, cardiac muscle (Homo sapiens) + Troponin T, cardiac muscle (Homo sapiens) + Troponin C, slow skeletal and cardiac muscles (Homo sapiens) (UniProt P19429+P45379+P63316)
# experimental.protocol: cardiac RTF calcium sensitivity activators, confirmation, biochemical, IANBD-TnC fluorescence, triplicate (AID 504383);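 further: 0% = DMSO at 0.472 mM calcium and 100% = DMSO at 2.9 mM calcium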
# condition.set: IANBD-labeled cardiac RTF, Ca2+ sensitivity fluorescence; at 7.2 µM; scaled from EC20 to saturating calcium; tested at EC20 calcium, 0.472 mM
About 1,200 (48%) of roughly 2,500 compounds were called active.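 The calls were made as follows: active = mean activation above the low control average plus 3 SD, as set in the primary screen (cut at about 12% in these data); inactive = the rest.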 So high a share suggests a set chosen from earlier hits. This is one part of the list.
Parameter call: string, one of yes (active), no (inactive)

Please review the entries below; each comes with its answer.
compound	label.class
O=C(Nc1ccc(C(=O)N2CCOCC2)cc1)Nc1cccc(Cl)c1	yes
O=C(NCc1ccccc1)c1ccc(N2CCC3(CC2)CC(c2ccccc2)=NO3)c([N+](=O)[O-])c1	no
NC(=O)CC(NC(=O)c1ccc(Br)cc1)c1ccc(N2CCN(c3ccc(F)cc3)CC2)c([N+](=O)[O-])c1 (stereo unspecified)	yes
O=C(NCC1CC1)Nc1cccc(Cl)c1	no
CC[N+](C)(C)c1cccc(O)c1	no
CC(=O)N(c1ccccc1)C1SC(=O)N(c2ccccc2)C1=O (stereo unspecified)	no

In: Field: outcome | Entry: `CCOc1cc(/C=C2\NC(=O)NC2=O)cc([N+](=O)[O-])c1O`
Out: no

In: Field: outcome | Entry: `O=C(NC(=S)Nc1ccc2oc(=O)ccc2c1)c1ccco1`
Out: yes

In: Field: outcome | Entry: COc1ccc2ccccc2c1C(O)c1nccn1C (stereo unspecified)
Out: yes

In: Field: outcome | Entry: `Cn1cccc1/C=C1\SC(=S)N(CC(=O)O)C1=O`
Out: yes

In: Field: outcome | Entry: Cc1cc(C)cc(C(=O)NC(CC(N)=O)c2ccc(N3CCCCCC3)c([N+](=O)[O-])c2)c1 (stereo unspecified)
Out: no

###

# tgt: Troponin I, cardiac muscle (Homo sapiens) + Troponin T, cardiac muscle (Homo sapiens) + Troponin C, slow skeletal and cardiac muscles (Homo sapiens) (UniProt P19429+P45379+P63316)
# experimental.protocol: cardiac RTF calcium sensitivity activators, confirmation, biochemical, IANBD-TnC fluorescence, triplicate (AID 504383);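 further: 0% = DMSO at 0.472 mM calcium and 100% = DMSO at 2.9 mM calcium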
# condition.set: IANBD-labeled cardiac RTF, Ca2+ sensitivity fluorescence; at 7.2 µM; scaled from EC20 to saturating calcium; tested at EC20 calcium, 0.472 mM
Hit rate of the full screen: of about 2,500 compounds, about 1,200 (48%) were called active.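 How the source made its calls: active means mean activation above the low control average plus 3 SD, as set in the primary screen (cut at about 12% in these data); inactive means the rest.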 The set was probably picked from earlier hits. The list shows a part of the results.
Parameter call: string, one of active, inactive

compound	label.class
COc1ccc(C2NN=C(c3c[nH]c4ccccc34)C2O)cc1 (stereo not given)	active
N=c1oc2c3c4c(cc2cc1C(=O)Nc1ccccc1)CCCN4CCC3	active

In: Field: outcome | Entry: CCOC(=O)c1ccc(N2C(=O)C3C(C2=O)C(C(=O)c2ccc(Cl)cc2)N2CCCC32)cc1 (stereo not given)
Out: active

In: Field: outcome | Entry: COc1ccc(N2C(=O)C3C(C2=O)C(C(=O)c2ccc(Cl)cc2)N2CCCC32)cc1 (stereo not given)
Out: inactive

In: Field: outcome | Entry: `Cc1ccc2c(CN3CCCc4ccccc43)cc(=O)oc2c1C`
Out: inactive

In: Field: outcome | Entry: `O=c1ccc2cc3c4c(c2o1)CCCN4CCC3`
Out: active
